FYI, the data here is from patent US20120264685A1.

- assay summary: Stability in human plasma
- Assay type: in vitro ADME
- experimental setup: 2 μM, 37° C., 24 h
Where a SMILES comes first, the peptide text is derived from it. [ ]: non-standard residue; d: D form. ξ: configuration not given here. ξαMeBip(2'-Et,4'-OMe) = CCc1cc(OC)ccc1-c1ccc(CC(C)(N)C(=O)O)cc1; ξαMePhe(2,6-F2) = CC(N)(Cc1c(F)cccc1F)C(=O)O; ξhhPhe = NC(CCCc1ccccc1)C(=O)O; ξαMeP = CC1(C(=O)O)CCCN1
measured property: % degradation in 24 h when incubated with human plasma (%)
Give your result in % as a bare value.

The recorded % degradation in 24 h when incubated with human plasma for entry CCc1cc(OC)ccc1-c1ccc(CC(C)(NC(=O)[C@H](CC(=O)O)NC(=O)[C@H](CO)NC(=O)[C@@H](NC(=O)C(C)(Cc2c(F)cccc2F)NC(=O)[C@@H](NC(=O)CNC(=O)[C@H](CCC(N)=O)NC(=O)C2(C)CCCN2C(=O)[C@H](Cc2c[nH]cn2)NC(=O)[C@@H](N)C(C)C)[C@@H](C)O)[C@@H](C)O)C(=O)NC(CCCc2ccccc2)C(N)=O)cc1 (stereo partly shown) [compound 28] (H-VH[ξαMeP]QGT[ξαMePhe(2,6-F2)]TSD[ξαMeBip(2'-Et,4'-OMe)][ξhhPhe]-NH2) equals 71

====

- Tested on: male C57BL/6J mice
- assay summary: Acute single dose 120-min time-course experiment, in vivo glucose reduction
- Design: unit not given here
- experimental setup: 2 μM/kg, oral; 30 min; n = 8, Mean ± SEM
# blood glucose level (in vivo glucose reduction) per record follows
Form rule: numeric answer, no unit written next to it.

Some compounds with recorded blood glucose level (in vivo glucose reduction):
compound	subject of test	test value
CCc1cc(OC)ccc1-c1ccc(CC(C)(NC(=O)C(C)(CC(=O)O)NC(=O)[C@H](CO)NC(=O)[C@@H](NC(=O)[C@H](Cc2ccccc2)NC(=O)[C@@H](NC(=O)CNC(=O)[C@H](CCC(=O)O)NC(=O)C(C)(C)NC(=O)[C@H](Cc2c[nH]cn2)NC(=O)[C@@H](N)C(C)C)[C@@H](C)O)[C@@H](C)O)C(=O)NC(C)(CCCc2ccccc2)C(N)=O)cc1 (single isomer, unassigned) [Seq. ID. No. 187]	male C57BL/6J mice	119
CCc1cc(OC)ccc1-c1ccc(CC(C)(NC(=O)C(C)(CC(=O)O)NC(=O)[C@H](CO)NC(=O)[C@@H](NC(=O)C(C)(Cc2c(F)cccc2F)NC(=O)[C@@H](NC(=O)CNC(=O)[C@H](CCC(N)=O)NC(=O)C2(C)CCCN2C(=O)[C@H](Cc2c[nH]cn2)NC(=O)[C@@H](N)C(C)C)[C@@H](C)O)[C@@H](C)O)C(=O)NC(CCCc2ccccc2)C(N)=O)cc1 (single isomer, unassigned) [Seq. ID. No. 76]	male C57BL/6J mice	116

The recorded blood glucose level (in vivo glucose reduction) for entry CCc1cc(OC)ccc1-c1ccc(CC(NC(=O)C(C)(CC(=O)O)NC(=O)C(C)(CO)NC(=O)[C@@H](NC(=O)C(C)(Cc2ccccc2F)NC(=O)[C@@H](NC(=O)CNC(=O)[C@H](CCC(N)=O)NC(=O)C2(C)CCCN2C(=O)[C@H](Cc2c[nH]cn2)NC(=O)[C@@H](N)C(C)C)[C@@H](C)O)[C@@H](C)O)C(=O)NC(C)(CCCc2ccccc2)C(N)=O)cc1 (single isomer, unassigned) [Seq. ID. No. 118] equals 115

The recorded blood glucose level (in vivo glucose reduction) for entry CCc1cc(OC)ccc1-c1ccc(CC(C)(NC(=O)[C@H](CC(=O)O)NC(=O)C(C)(CO)NC(=O)[C@@H](NC(=O)C(C)(Cc2c(F)cccc2F)NC(=O)[C@@H](NC(=O)CNC(=O)[C@H](CCC(=O)O)NC(=O)[C@H](CO)NC(=O)[C@H](Cc2c[nH]cn2)NC(=O)[C@@H](N)C(C)C)[C@@H](C)O)[C@@H](C)O)C(=O)NC(C)(CCCc2ccccc2)C(N)=O)cc1 (single isomer, unassigned) [Seq. ID. No. 177] equals 116

The recorded blood glucose level (in vivo glucose reduction) for entry CCc1cc(OC)ccc1-c1ccc(CC(NC(=O)[C@H](CC(=O)O)NC(=O)[C@H](CO)NC(=O)[C@@H](NC(=O)C(C)(Cc2c(F)cccc2F)NC(=O)[C@@H](NC(=O)CNC(=O)[C@H](CCC(=O)O)NC(=O)C(C)(C)NC(=O)[C@H](Cc2c[nH]cn2)NC(=O)[C@@H](N)C(C)C)[C@@H](C)O)[C@@H](C)O)C(=O)NC(C)(CCCc2ccccc2)C(N)=O)cc1 (single isomer, unassigned) [Seq. ID. No. 105] equals 115
